Provenance of the data: patent EP3666770A1

- MEASUREMENT_PROTOCOL: Chemical stability in simulated gastric fluid (SGF)
- Format: physicochemical
- STUDY_CONDITIONS: SGF without enzymes, pH=1,4; 10 µm; 2 hours at 37°C; substance amount in % after thermostatting
READOUT_LABEL: Stability in SGF, %
Reply with the number, then its unit.

CN(C)c1ccc(-c2cnc3[nH]cc(C(=O)c4cccnc4)c3c2)cc1 [CDK8-4-39] : 100%

// batch mode: one Stability in SGF, % value per listed entry
1. O=C(c1ccncc1)c1c[nH]c2ncc(-c3ccc(N4CCOCC4)cc3)cc12 [CDK8-4-38]
2. N=C(c1ccnc2ccc(-c3ccc(-c4cn[nH]c4)cc3)cc12)N1CCCCC1 [CDK8-5-4i]
3. COc1cc(-c2cnc3[nH]cc(C(=O)c4ccncc4)c3c2)ccc1N1CCOCC1 [CDK8-4-31]
4. CN1CCN(Cc2ccc(-c3ccnc4ccc(N5CCC(C)(C(N)=O)CC5)cc34)cc2)CC1 [CDK8-6-3]
5. O=C(c1cccnc1)c1c[nH]c2ncc(-c3ccc(N4CCOCC4)c(O)c3)cc12 [CDK8-4-7]
6. O=C(c1cccnc1)c1c[nH]c2ncc(-c3ccc(N4CCOCC4)cc3)cc12 [CDK8-4-37]

[reply]
1: 100%; 2: 98.8%; 3: 99.9%; 4: 100%; 5: 99.1%; 6: 100%

---

- MEASUREMENT_PROTOCOL: Permeability through Caco-2 cell monolayer
- Format: in vitro ADME
- STUDY_CONDITIONS: human, Caco-2; efflux = Papp B-A / Papp A-B
For each entry below, report its efflux ratio at 2 h, 10 µM value.

// known answers, use as guide
Cn1cc(-c2ccc(-c3cnc(N)c4ncc(C(=O)N5CCC5)cc34)cc2)cn1 : 0.3
COc1cc(-c2cnc3[nH]cc(C(=O)c4cccnc4)c3c2)ccc1N1CCOCC1 : 0.25
COCCN(C)C(=O)c1cnc2cncc(-c3ccc(-c4cnn(C)c4)cc3)c2c1 : 0.6

[ask] Output efflux ratio at 2 h, 10 µM of `Cn1cc(-c2ccc(-c3cncc4ncc(C(=O)N5CCC5)cc34)cc2)cn1`
[reply] 1.35

---

- MEASUREMENT_PROTOCOL: Chemical stability in human blood plasma
- Assay type: in vitro ADME
- STUDY_CONDITIONS: pooled human blood plasma; 10 µM; 4 hours at 37°C; substance amount in % after thermostatting
READOUT_LABEL: Stability in blood plasma, % (%)
Answers are plain numbers, in %.

Take a look at these entries with their results.
Cn1cc(-c2ccc(-c3cncc4ncc(N5CCCC5=O)cc34)cc2)cn1 [CDK8-3-17] : 100
O=C(c1ccc2ncn(-c3ccc(-c4cn[nH]c4)cc3)c2c1)N1CCC1 [CDK8-1-5] : 98.1
COCCNC(=O)c1cnc2c(N)ncc(-c3ccc(-c4cnn(C)c4)cc3)c2c1 [CDK8-3-24] : 89.7
COCCNC(=O)c1ccc2nccc(-c3ccc(-c4cnn(C)c4)cc3)c2c1 [CDK8-6-14] : 100
O=C(C1CN(c2ccc3ncn(-c4ccc(-c5cn[nH]c5)cc4)c3c2)C1)N1CCOCC1 [CDK8-1-4] : 100
O=C(c1ccnc2ccc(-c3ccc(-c4cn[nH]c4)cc3)cc12)N1CCCCC1 [CDK8-5-4] : 100
CN(C)c1ccc(-c2cnc3[nH]cc(C(=O)c4ccncc4)c3c2)cc1O [CDK8-4-9] : 100
N=C(c1ccnc2ccc(-c3ccc(-c4cn[nH]c4)cc3)cc12)N1CCCCC1 [CDK8-5-4i] : 100

[ask] Tell me Stability in blood plasma, % reported for Cn1cc(-c2ccc(-c3cnc(N)c4ncc(C(=O)NCCO)cc34)cc2)cn1 [CDK8-3-42]
[reply] 100
